# protocolText: Metabolic stability in pooled human liver microsomes
# Type: in vitro ADME
# measurementConditions: human, pooled human liver microsomes, pooled human liver microsomes 0.5 mg/mL, 1 μM test compound, 37° C., with 1 mM NADPH; * rows = mean of two runs; read-out: T1/2, + NaDPH
valueType: half-life at 1 μM

>  <molecule>
CC(C)Cc1ccc(S(=O)(=O)Nc2ncc(C(F)(F)F)cn2)c(-c2ccc(Cn3ccnc3C(C)(C)C)c(F)c2)c1 [Example 21]

>  <recordedValue>
> 1 h

$$$$
>  <molecule>
CC(C)Cc1cc(-c2ccc(Cn3ccnc3C(C)C)cc2)c(S(=O)(=O)Nc2ncccn2)s1 [Example 49]

>  <recordedValue>
> 1 h

$$$$
>  <molecule>
CC(C)Cc1cc(-c2ccc(Cn3ccnc3C(C)(C)C)c(F)c2)c(S(=O)(=O)Nc2ncccn2)s1 [Example 43]

>  <recordedValue>
> 1 h

$$$$
>  <molecule>
CC(C)Cc1ccc(S(=O)(=O)Nc2ncc(F)cn2)c(-c2ccc(Cn3ccnc3C(C)(C)C)c(F)c2)c1 [Example 9]

>  <recordedValue>
> 1 h

$$$$
>  <molecule>
CC(C)Cc1ccc(S(=O)(=O)Nc2ncccn2)c(-c2ccc(Cn3ccnc3C(C)(C)O)cc2)c1 [Example 15]

>  <recordedValue>
> 1 h

$$$$

----------
# assaySystem: human recombinant AT2 receptor (Homo sapiens, UniProt P50052)
# Construct: purchased Eurofins ITEM26 (protocol number)
# Sequence (P50052 whole entry): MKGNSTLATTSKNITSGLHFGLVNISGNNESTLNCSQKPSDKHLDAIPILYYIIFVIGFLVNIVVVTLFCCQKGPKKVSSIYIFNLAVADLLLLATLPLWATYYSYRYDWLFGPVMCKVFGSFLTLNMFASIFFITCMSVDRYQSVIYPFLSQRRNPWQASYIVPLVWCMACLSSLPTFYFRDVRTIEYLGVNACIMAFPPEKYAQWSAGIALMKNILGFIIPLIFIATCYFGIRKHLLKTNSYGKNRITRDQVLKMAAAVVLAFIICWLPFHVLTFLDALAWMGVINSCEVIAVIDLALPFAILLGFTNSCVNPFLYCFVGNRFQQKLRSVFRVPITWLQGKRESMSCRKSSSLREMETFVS
# protocolText: Binding to AT2 receptor, radiometric scintillation assay (Eurofins ITEM26)
# measurementConditions: test compounds at 1, 10, 100 and 1000 nM, ligand 125I CGP 42112A; * rows = mean of runs; read-out: AT2 GraFit IC50
pIC50: −log10 of the molar value.
# Lookup of reported pIC50 keyed by entry
valueType: pIC50

>  <smilesStr>
CC(C)Cc1cc(-c2ccc(Cn3ccnc3C3CC3)c(F)c2)c(S(=O)(=O)Nc2ncccn2)s1

>  <valueType>
pIC50

>  <censoringQualifier>
>

>  <recordedValue>
9.52

$$$$
>  <smilesStr>
COc1ncncc1NS(=O)(=O)c1ccc(CC(C)C)cc1-c1ccc(Cn2ccnc2C(C)(C)C)c(F)c1

>  <valueType>
pIC50

>  <censoringQualifier>
=

>  <recordedValue>
6.85

$$$$
>  <smilesStr>
CC(C)Cc1cc(-c2ccc(Cn3ccnc3C3CC3)cc2)c(S(=O)(=O)Nc2ncccn2)s1

>  <valueType>
pIC50

>  <censoringQualifier>
=

>  <recordedValue>
8.82

$$$$
>  <smilesStr>
COc1ncnc(OC)c1NS(=O)(=O)c1ccc(CC(C)C)cc1-c1ccc(Cn2ccnc2C(C)(C)C)c(F)c1

>  <valueType>
pIC50

>  <censoringQualifier>
=

>  <recordedValue>
6.82

$$$$
>  <smilesStr>
CC(C)Cc1ccc(S(=O)(=O)Nc2ncc(Br)cn2)c(-c2ccc(Cn3ccnc3C(C)(C)C)cc2)c1

>  <valueType>
pIC50

>  <censoringQualifier>
=

>  <recordedValue>
8.38

$$$$
>  <smilesStr>
CC(C)Cc1ccc(S(=O)(=O)Nc2ncccn2)c(-c2ccc(Cn3ccnc3)cc2)c1

>  <valueType>
pIC50

>  <censoringQualifier>
=

>  <recordedValue>
8.56

$$$$

----------
# assaySystem: CYP2B6 (Homo sapiens)
# Construct: isoform-specific substrates incubated with human liver microsomes; tissue Eurofins ITEMG232 (protocol number); host or cells: human liver microsomes
# Sequence (P20813 1-491): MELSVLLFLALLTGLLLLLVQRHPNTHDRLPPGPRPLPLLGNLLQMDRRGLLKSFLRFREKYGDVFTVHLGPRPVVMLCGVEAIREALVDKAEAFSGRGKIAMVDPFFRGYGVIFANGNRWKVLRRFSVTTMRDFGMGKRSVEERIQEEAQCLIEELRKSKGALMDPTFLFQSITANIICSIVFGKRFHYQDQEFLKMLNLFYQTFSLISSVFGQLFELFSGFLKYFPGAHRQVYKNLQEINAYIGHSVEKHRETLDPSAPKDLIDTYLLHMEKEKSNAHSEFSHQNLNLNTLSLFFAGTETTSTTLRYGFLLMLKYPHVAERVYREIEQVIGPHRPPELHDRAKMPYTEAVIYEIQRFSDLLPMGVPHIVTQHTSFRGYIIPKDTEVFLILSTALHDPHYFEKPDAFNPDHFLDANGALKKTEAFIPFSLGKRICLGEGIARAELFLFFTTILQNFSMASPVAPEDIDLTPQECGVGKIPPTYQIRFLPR
# protocolText: CYP inhibition in human liver microsomes (Eurofins ITEMG232)
# Assay type: in vitro ADME
# measurementConditions: probe bupropion, substrate bupropion, read-out: CYP2B6 Inh %
Returns fulfilled if the recorded inhibition at 10 µM is greater than or equal to 30%, and not fulfilled otherwise.

>  <smilesStr>
Cc1nc(NS(=O)(=O)c2ccc(CC(C)C)cc2-c2ccc(Cn3ccnc3C(C)(C)C)c(F)c2)oc1C

>  <classAssignment>
not fulfilled

$$$$
>  <smilesStr>
CC(C)Cc1ccc(S(=O)(=O)Nc2ncccn2)c(-c2ccc(Cn3ccnc3C(C)(C)C)c(F)c2)c1

>  <classAssignment>
fulfilled

$$$$
>  <smilesStr>
Cc1cnc(NS(=O)(=O)c2ccc(CC(C)C)cc2-c2ccc(Cn3ccnc3C(C)(C)C)cc2)nc1

>  <classAssignment>
not fulfilled

$$$$
>  <smilesStr>
Cc1cnc(NS(=O)(=O)c2ccc(CC(C)C)cc2-c2ccc(Cn3ccnc3C(C)(C)C)c(F)c2)nc1

>  <classAssignment>
not fulfilled

$$$$
>  <smilesStr>
COc1ccc(NS(=O)(=O)c2ccc(CC(C)C)cc2-c2ccc(Cn3ccnc3C(C)(C)C)cc2)nn1

>  <classAssignment>
not fulfilled

$$$$
>  <smilesStr>
CC(C)Cc1ccc(S(=O)(=O)Nc2ncc(Br)cn2)c(-c2ccc(Cn3ccnc3C(C)(C)C)cc2)c1

>  <classAssignment>
not fulfilled

$$$$
>  <smilesStr>
CC(C)Cc1ccc(S(=O)(=O)Nc2ncccn2)c(-c2ccc(Cn3ccnc3)c(F)c2)c1

>  <classAssignment>
fulfilled

$$$$
>  <smilesStr>
COc1ncncc1NS(=O)(=O)c1ccc(CC(C)C)cc1-c1ccc(Cn2ccnc2C(C)(C)C)c(F)c1

>  <classAssignment>
not fulfilled

$$$$
>  <smilesStr>
CC(C)Cc1ccc(S(=O)(=O)Nc2ncc(Br)cn2)c(-c2ccc(Cn3ccnc3C(C)(C)C)c(F)c2)c1

>  <classAssignment>
fulfilled

$$$$
>  <smilesStr>
CC(C)Cc1ccc(S(=O)(=O)Nc2ncc(C(F)(F)F)cn2)c(-c2ccc(Cn3ccnc3C(C)(C)C)c(F)c2)c1

>  <classAssignment>
fulfilled

$$$$
>  <smilesStr>
CC(C)Cc1ccc(S(=O)(=O)Nc2ncc(C(F)(F)F)cn2)c(-c2ccc(Cn3ccnc3C(C)(C)C)cc2)c1

>  <classAssignment>
fulfilled

$$$$
>  <smilesStr>
COc1ncnc(OC)c1NS(=O)(=O)c1ccc(CC(C)C)cc1-c1ccc(Cn2ccnc2C(C)(C)C)c(F)c1

>  <classAssignment>
not fulfilled

$$$$
>  <smilesStr>
COc1ncncc1NS(=O)(=O)c1ccc(CC(C)C)cc1-c1ccc(Cn2ccnc2C(C)(C)C)cc1

>  <classAssignment>
fulfilled

$$$$
>  <smilesStr>
CC(C)Cc1ccc(S(=O)(=O)Nc2nccs2)c(-c2ccc(Cn3ccnc3C(C)(C)C)c(F)c2)c1

>  <classAssignment>
fulfilled

$$$$
>  <smilesStr>
CC(C)Cc1ccc(S(=O)(=O)Nc2nccs2)c(-c2ccc(Cn3ccnc3C(C)(C)C)cc2)c1

>  <classAssignment>
fulfilled

$$$$
>  <smilesStr>
COc1ncnc(OC)c1NS(=O)(=O)c1ccc(CC(C)C)cc1-c1ccc(Cn2ccnc2C(C)(C)C)cc1

>  <classAssignment>
not fulfilled

$$$$
>  <smilesStr>
Cc1nccn1Cc1ccc(-c2cc(CC(C)C)sc2S(=O)(=O)Nc2ncccn2)cc1F

>  <classAssignment>
not fulfilled

$$$$
>  <smilesStr>
CC(C)Cc1ccc(S(=O)(=O)Nc2ncc(C#N)cn2)c(-c2ccc(Cn3ccnc3C(C)(C)C)c(F)c2)c1

>  <classAssignment>
fulfilled

$$$$
>  <smilesStr>
CC(C)Cc1ccc(S(=O)(=O)Nc2ncccn2)c(-c2ccc(Cn3ccnc3C(C)C)c(F)c2)c1

>  <classAssignment>
not fulfilled

$$$$
>  <smilesStr>
Cc1nccn1Cc1ccc(-c2cc(CC(C)C)ccc2S(=O)(=O)Nc2ncccn2)cc1F

>  <classAssignment>
fulfilled

$$$$
>  <smilesStr>
CC(C)Cc1ccc(S(=O)(=O)Nc2ncc(Cl)cn2)c(-c2ccc(Cn3ccnc3C(C)(C)C)cc2)c1

>  <classAssignment>
not fulfilled

$$$$
>  <smilesStr>
CCc1nccn1Cc1ccc(-c2cc(CC(C)C)ccc2S(=O)(=O)Nc2ncccn2)cc1F

>  <classAssignment>
not fulfilled

$$$$

----------
# protocolText: Metabolic stability in pooled human liver microsomes
# Type: in vitro ADME
# measurementConditions: human, pooled human liver microsomes, pooled human liver microsomes 0.5 mg/mL, 1 μM test compound, 37° C., with 1 mM NADPH; * rows = mean of two runs; read-out: T1/2, + NaDPH
valueType: half-life at 1 μM

>  <molecule>
CC(C)Cc1ccc(S(=O)(=O)Nc2ncccn2)c(-c2ccc(Cn3ccnc3C(C)C)c(F)c2)c1 [Example 27]

>  <valueType>
half-life at 1 μM

>  <recordedValue>
> 1 h

$$$$
>  <molecule>
CCc1nccn1Cc1ccc(-c2cc(CC(C)C)sc2S(=O)(=O)Nc2ncccn2)cc1 [Example 51]

>  <valueType>
half-life at 1 μM

>  <recordedValue>
> 1 h

$$$$
>  <molecule>
Cc1nccn1Cc1ccc(-c2cc(CC(C)C)ccc2S(=O)(=O)Nc2ncccn2)cc1 [Example 37]

>  <valueType>
half-life at 1 μM

>  <recordedValue>
> 1 h

$$$$
>  <molecule>
CC(C)Cc1cc(-c2ccc(Cn3ccnc3C3CC3)c(F)c2)c(S(=O)(=O)Nc2ncccn2)s1 [Example 47]

>  <valueType>
half-life at 1 μM

>  <recordedValue>
> 1 h

$$$$
